target_or_system: Squalene synthase (Rattus norvegicus)
Sequence (Q02769 whole entry): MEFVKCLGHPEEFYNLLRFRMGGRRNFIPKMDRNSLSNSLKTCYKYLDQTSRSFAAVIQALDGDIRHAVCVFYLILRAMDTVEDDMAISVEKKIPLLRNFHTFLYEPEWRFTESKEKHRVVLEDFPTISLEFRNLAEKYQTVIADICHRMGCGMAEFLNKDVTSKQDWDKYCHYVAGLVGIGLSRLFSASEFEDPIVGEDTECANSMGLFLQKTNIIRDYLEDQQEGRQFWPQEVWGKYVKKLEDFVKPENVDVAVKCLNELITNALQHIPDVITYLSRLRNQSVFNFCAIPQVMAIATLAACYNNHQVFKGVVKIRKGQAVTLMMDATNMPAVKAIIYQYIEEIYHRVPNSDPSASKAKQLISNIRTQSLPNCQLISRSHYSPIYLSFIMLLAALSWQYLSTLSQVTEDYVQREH
Squalene synthase (Rattus norvegicus) pIC50, compiled from various sources.
A value of pIC50 is the negative decimal logarithm of a concentration given in moles per litre.

Observe how each entry below is paired with its result.
• O=S(=O)(c1ccccc1)c1c(OCCCCC(O)([P+]([O-])(O)O)[P+]([O-])(O)O)no[n+]1[O-] = 5.10
• CP(=O)(O)C(CCCc1ccc(-c2ccccc2)cc1)P(=O)(O)O (centres undefined) = 6.31
• COc1ccccc1[C@H](O)c1cc(Cl)cc(OC)c1N(CC(C)(C)C)C(=O)CCC(=O)N1CCC[C@@H](C(=O)O)C1 = 7.30
• CC(C)=CCC/C(C)=C/CC/C(C)=C/CC(C(=O)N[C@H](Cc1ccccc1)C(=O)O)P(=O)(O)O (some centres undefined) = 6.30
• CCCCCCCC(=O)O[C@@H]1[C@@H](O)[C@@]2(CCCC(OC(C)=O)C(C)C/C=C/c3ccccc3)O[C@H](C(=O)O)[C@@](O)(C(=O)O)[C@]1(C(=O)O)O2 (some centres undefined) = 8.22

Exercise: Endpoint output: pIC50 of CC(C)=CCC/C(C)=C/CCCC(C(=O)O)P(=O)(O)O (centres undefined) . Value?
Key: 5.78

Exercise: Endpoint output: pIC50 of CCC(=O)Nc1ccc(OCCCNC(C)C)c(Cc2ccccc2)c1 . Value?
Key: 9.22

Exercise: Endpoint output: pIC50 of C(=C\c1ccc(OCCNCc2ccccc2)cc1)/c1ccccc1 . Value?
Key: 8.05

Exercise: Endpoint output: pIC50 of C=C(CC[C@]12O[C@H](c3nc(C)no3)[C@@](O)(C(=O)O)[C@](C(=O)O)(O1)[C@H](OC(=O)/C=C/[C@@H](C)C[C@@H](C)CC)[C@H]2O)[C@@H](C(C)=O)[C@H](C)Cc1ccccc1 . Value?
Key: 7.14

Exercise: Endpoint output: pIC50 of C=C(CC[C@]12O[C@H](C(=O)O)[C@@](O)(C(=O)O)[C@](C(=O)O)(O1)[C@H](OC(=O)/C=C/[C@@H](C)C[C@@H](C)CC)[C@H]2O)[C@@H](O)[C@H](C)Cc1ccccc1 . Value?
Key: 8.30

Exercise: Endpoint output: pIC50 of C=C(CC[C@]12O[C@H](c3cnc[nH]3)[C@@](O)(C(=O)O)[C@](C(=O)O)(O1)[C@H](O)[C@H]2O)[C@@H](C(C)=O)[C@H](C)Cc1ccccc1 . Value?
Key: 6.11

Exercise: Endpoint output: pIC50 of C=C(CC[C@]12O[C@H](C(=O)O)[C@@](O)(C(=O)O)[C@](C(=O)O)(O1)[C@H](OC(=O)/C=C/[C@@H](C)C[C@@H](C)CC)[C@H]2OC(C)=O)[C@@H](OC(C)=O)[C@H](C)Cc1ccccc1 . Value?
Key: 8.00
